These data points were gathered from patent US20120220563A1.

- System: platelet aggregation in platelet-rich plasma triggered by thrombin receptor agonist (TRAP6, SFLLRN)
- ASSAY DETAILS: Platelet aggregation in plasma (TRAP6/SFLLRN-triggered, turbidimetry according to Born)
- Format: cell-based
- PROTOCOL CONDITIONS: Homo sapiens, 10 min, platelet-rich plasma of healthy volunteers, 10 min at 37° C. with test substance, concentration which inhibits aggregation by 50%
ASSAY METRIC: pIC50
Answers are plain numbers, as −log10 of the molar value.

- COMPOUND: "CCc1ccc(C2CC(c3nc(OCCOC)no3)CN(C(=O)N3CCS(=O)(=O)CC3)C2)cc1 (single isomer, unassigned) [Example 63]"
  pIC50: 9.62
- COMPOUND: "CCN(CC)c1noc(C2CC(c3ccc(C(F)(F)F)cc3)CN(C(=O)N3CCOCC3)C2)n1 (single isomer, unassigned) [Example 6]"
  pIC50: 9.17
- COMPOUND: "CCOc1noc(C2CC(c3ccc(CC(F)(F)F)cc3)CN(C(=O)N3CCS(=O)(=O)CC3)C2)n1 (single isomer, unassigned) [Example 69]"
  pIC50: 9.60

For each of the items listed, what is its pIC50?
1. CCOc1noc(C2CC(c3ccc(CC)c(F)c3)CN(C(=O)N3CCS(=O)(=O)CC3)C2)n1 (racemic) [Example 101]
2. CCOc1noc(C2CC(c3ccc(CC(F)(F)F)cc3)CN(C(=O)N3CC[S+]([O-])CC3)C2)n1 (single isomer, unassigned) [Example 66]

1: 9.52; 2: 9.27
